A collection of compounds and their measured AUC(0-inf)
Test: Plasma and brain exposure in male CD-1 mice (Brain PK)
Type: in vivo
Settings: CD-1, mouse, iv, brain, i.v. 1 mg/kg free base
READOUT_TYPE: AUC(0-inf) (ng·h/mL)

>>> df
                                chem_smiles  readout_type  assay_result
0  CN(C)C/C=C/C(=O)Nc1cc2c(Nc3ccc(F)c(Cl)c3F)ncnc2cc1OCCOC(F)F.O=C(O)/C=C\C(=O)O.O=C(O)/C=C\C(=O)O    AUC(0-inf)           420
1  O=C(/C=C/CN1CCCCC1)Nc1cc2c(Nc3ccc(F)c(Cl)c3F)ncnc2cc1OCCOC(F)F.O=C(O)/C=C\C(=O)O.O=C(O)/C=C\C(=O)O    AUC(0-inf)          1730
